Target or test system: T1, TIGIT (T cell immunoreceptor with Ig and ITIM domains) (human, UniProt Q495A1 22-141, limits assumed)
T1 construct: also called hTIGIT; human TIGIT
T1 sequence (looked up): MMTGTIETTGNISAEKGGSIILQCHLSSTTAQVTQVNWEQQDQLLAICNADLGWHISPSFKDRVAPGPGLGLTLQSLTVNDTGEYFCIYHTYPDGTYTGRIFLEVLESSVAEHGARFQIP
Assay protocol: SPR kinetics
Output Met for kon not less than 60000 M⁻¹ s⁻¹; output Not met otherwise.

Exercise: Identify whether the reported kon of the following binder is 60000 M⁻¹ s⁻¹ or greater: TIGIT-211-98 (antibody, V domains shown) VH: EVQLLESGGGLVQPGGSLRLSCAASGFTFETYAMSWVRQAPGKGLEWVSVISGSGGRPNYADSVKGRFTISRDNSKNTLYLQMNSLRAEDTAVYYCAREGLWAFDYWGQGTLVTVSS VL: DIQMTQSPSSLSASVGDRVTITCRASHFIGSLLSWYQQKPGKAPKLLIYETSKLASGVPSRFSGSGSGTDFTLTISSLQPEDFATYYCQQSYSYPRTFGQGTKVEIK
Key: Not met

Exercise: Does TIGIT-211-95 (antibody, V domains shown) VH: EVQLLESGGGLVQPGGSLRLSCAASGFTFPKYGMAWVRQAPGKGLEWVSTISSGGGYTYYPDSVKGRFTISRDNSKNTLYLQMNSLRAEDTAVYYCARDTYLHFDYWGQGTLVTVSS VL: DIQMTQSPSSLSASVGDRVTITCRASQGVRTSLAWYQQKPGKAPKLLIYAKNNRPSGVPSRFSGSGSGTDFTLTISSLQPEDFATYYCQQSYSAPYTFGQGTKVEIK have a reported kon of at least 60000 M⁻¹ s⁻¹?
Key: Met

Exercise: Hello, I need to know if TIGIT-211-15 (antibody, V domains shown) VH: EVQLLESGGGLVQPGGSLRLSCAASGFTFSSAAMSWVRQAPGKGLEWVSGISPSGGITTYADSVKGRFTISRDNSKNTLYLQMNSLRAEDTAVYYCASLSRGYWGQGTLVTVSS VL: DIQMTQSPSSLSASVGDRVTITCQSSQSVYSNNELSWYQQKPGKAPKLLIYGTSYRYSGVPSRFSGSGSGTDFTLTISSLQPEDFATYYCSSWAGSRSGTVFGQGTKVEIK has measured kon not below 60000 M⁻¹ s⁻¹. Thanks!
Key: Not met

Exercise: For this binder, is measured kon 60000 M⁻¹ s⁻¹ or higher? TIGIT-211-116 (antibody, V domains shown) VH: EVQLLESGGGLVQPGGSLRLSCAASGFTFSRYFMGWVRQAPGKGLEWVSAISGSGGNTYYADSVKGRFTISRDNSKNTLYLQMNSLRAEDTAVYYCARVWRNHLDYWGQGTLVTVSS VL: DIQMTQSPSSLSASVGDRVTITCRASQTIERRLNWYQQKPGKAPKLLIYHDNKRPSGVPSRFSGSGSGTDFTLTISSLQPEDFATYYCQQGYTLPWTFGQGTKVEIK
Key: Not met

Exercise: Hi, just wondering whether TIGIT-211-93 (antibody, V domains shown) VH: EVQLLESGGGLVQPGGSLRLSCAASGFTFSRYFMGWVRQAPGKGLEWVSEISPSGKKKYYADSVKGRFTISRDNSKNTLYLQMNSLRAEDTAVYYCAKSSFDKYNFDYWGQGTLVTVSS VL: DIQMTQSPSSLSASVGDRVTITCSASQDINKYLNWYQQKPGKAPKLLIYHTSRLQSGVPSRFSGSGSGTDFTLTISSLQPEDFATYYCQQFAYFPATFGQGTKVEIK shows kon of 60000 M⁻¹ s⁻¹ or higher.
Key: Not met

Exercise: Is kon at least 60000 M⁻¹ s⁻¹? Consider TIGIT-211-13 (antibody, V domains shown) VH: EVQLLESGGGLVQPGGSLRLSCAASGFTFNKYPMMWVRQAPGKGLEWVSYISSSGSSTYYADSVKGRFTISRDNSKNTLYLQMNSLRAEDTAVYYCARVIAAAGAFDYWGQGTLVTVSS VL: DIQMTQSPSSLSASVGDRVTITCRASQSIREYLHWYQQKPGKAPKLLIYFGSELRKGVPSRFSGSGSGTDFTLTISSLQPEDFATYYCGQGVLWPATFGQGTKVEIK
Key: Met
